# IC50 values compiled below
tested-on: T1, Human recombinant melanocortin MC1 receptor (human, UniProt Q01726 1-317)
T1 construct: whole, on cells; Eurofins Discovery assay Item 251100; a 3 ug aliquot of receptors from CHO-K1 cells was incubated, filtered and washed (probably a membrane preparation); also called Melanocortin 1 Receptor; MCIR
protocol-notes: radioligand competition, displacement of [125I]NDP-alpha-MSH from human MC1R (CHO-K1), Example 7
Procedure: The binding of Group A MCIR peptide antagonists of the disclosure was evaluated in a competition assay (MC1 Human Melanocortin GPCR Binding (Agonist Radioligand) Assay, Item 251100, Eurofins Discovery). Peptides were synthesized by AnaSpec (Fremont, CA). Human recombinant melanocortin MCI receptors were expressed in CHO-K1 cells in modified HEPES-KOH buffer pH 7.0. […] Receptors were filtered and washed, and the filters counted to determine [¹²⁵I]NDP-α-MSH specifically bound. […]
Square brackets hold non-standard residues; d marks the D form. Ends that are not written are not given here.
quantity: IC50

binder	quantity	measured
MVFR[dW]FKPV-NH2 (N-terminus assumed; SMILES CSCC[C@H](N)C(=O)N[C@H](C(=O)N[C@@H](Cc1ccccc1)C(=O)N[C@@H](CCCNC(=N)N)C(=O)N[C@H](Cc1c[nH]c2ccccc12)C(=O)N[C@@H](Cc1ccccc1)C(=O)N[C@@H](CCCCN)C(=O)N1CCC[C@H]1C(=O)N[C@H](C(N)=O)C(C)C)C(C)C, Printed as Met-Val-Phe-Arg-dTrp-Phe-Lys-Pro-Val-NH2) [SEQ ID NO: 27]	IC50	> 500 nM
MP[dF]R[dW]FKPV (Printed as Met-Pro-D-Phe-Arg-D-Trp-Phe-Lys-Pro-Val; no terminal modification is printed for the control; also called control; positive control) [Melanostatine-5 / Nonapeptide-1 (SEQ ID NO: 1)]	IC50	< 200 nM
AV[dF]R[dW]FKPV-NH2 (N-terminus assumed; SMILES CC(C)[C@H](NC(=O)[C@@H]1CCCN1C(=O)[C@H](CCCCN)NC(=O)[C@H](Cc1ccccc1)NC(=O)[C@@H](Cc1c[nH]c2ccccc12)NC(=O)[C@H](CCCNC(=N)N)NC(=O)[C@@H](Cc1ccccc1)NC(=O)[C@@H](NC(=O)[C@H](C)N)C(C)C)C(N)=O, Printed as Ala-Val-dPhe-Arg-dTrp-Phe-Lys-Pro-Val-NH2) [SEQ ID NO: 11]	IC50	200 to 500 nM
